System: HS 578T breast
Assay: NCI tumour cell line growth inhibition, 48 h
MEASURED QUANTITY: TGI (µM)
The answer is to be given in µM; state only the numeric part.

# lookup: TGI of Cc1cc(C)c(CNC(=O)c2cc(-c3ccc(CN4CCOCC4)cc3)cc3c2cnn3C2CCCC2)c(=O)[nH]1
64

# lookup: TGI of CC(=O)Oc1ccc2c(c1OC(C)=O)CCC1C2=CC[C@]2(C)C(=O)CCC12 (some centres undefined)
62.5

# lookup: TGI of CN(C)c1ccc2nc3ccc(=N)cc-3sc2c1
39.5

# lookup: TGI of COc1ccccc1N1C(=O)C2C3c4ccccc4C(OC(C)=O)(c4ccccc43)C2C1=O (centres undefined)
52.1

# lookup: TGI of CCOC(=O)c1cc(C(=O)c2ccc(Cl)cc2)n2ccc(-c3cc[n+](CC(=O)c4ccc(OC)cc4)cc3)cc12
4.38

More entries:
# lookup: TGI of COC(=O)[C@@]12OC[C@]34[C@H]([C@@H](O)[C@@H]1O)[C@@]1(C)CC(=O)C(OC(C)=O)=C(C)[C@@H]1C[C@H]3OC(=O)[C@H](OC(=O)C=C(C)C)[C@@H]24
3.32

# lookup: TGI of N#CC(C#N)=C/C=C(\Sc1ccc(F)c(Cl)c1)c1ccc(Cl)cc1
43.5

# lookup: TGI of CC1(C)CCC(S(=O)(=O)c2ccc3c(c2)/C(=N\O)c2cc(S(=O)(=O)N4CCN(c5ccc(F)cc5O)CC4)ccc2-3)CC1
0.448

# lookup: TGI of CC(C)(Cl)C(Cl)CC/C(CBr)=C(\Cl)CCl (centres undefined)
25.3

# lookup: TGI of COC1(OC)C[C@H](C)[C@@]23O[C@]24C2=CC(=O)C=CC2=N[C@H]3C#C/C=C\C#C[C@]14O
5.09

# lookup: TGI of CN(CCNC(=O)c1[nH]nc2c1Cc1ccccc1-2)CCNC(=O)c1[nH]nc2c1Cc1ccccc1-2
61.9

# lookup: TGI of COc1cc2c3c(n(CCCN=[N+]=[N-])c(=O)c2cc1OC)-c1ccc(C#N)cc1C3=O
38.9

# lookup: TGI of CCN1CCN(c2cc(C)nc(N(CCCNc3ccnc4cc(Cl)ccc34)Cc3cccs3)n2)CC1
5.02

# lookup: TGI of c1cc(N2CCCC2)c2nc(-c3[nH]ncc3Nc3ncnc4[nH]ccc34)[nH]c2c1
0.0771

* * *

System: SF-539 CNS
Test: NCI tumour cell line growth inhibition, 48 h; in the data active means GI50 below about 0.43 µM; inactive means the rest
Classes to choose from: Y = active, N = inactive

What did this assay record as the result for CC(C)(C)c1[nH]nc2c1C(c1cc3ccccc3[nH]c1=O)Nc1cc(C(=O)Nc3ccc(Cl)cc3)ccc1N2 (centres undefined) ?
N

What did this assay record as the result for Cn1cc(C2=C(Sc3ccccc3)C(=O)NC2=O)c2ccccc21 ?
N

What did this assay record as the result for CCOC(=O)c1ccc2c(c1)c1c(C)c3ccncc3c(C)c1n2C ?
N

What did this assay record as the result for O=C1OCC2=C1C(c1cccc(F)c1)c1cc3c(cc1N2CCO)CCC3 (centres undefined) ?
Y

What did this assay record as the result for C=C(C)[C@@H]1CC[C@]2(CNCCO)CC[C@]3(C)[C@H](CC[C@@H]4[C@@]5(C)CCC(N)[C@@](C)(CO)[C@@H]5CC[C@]43C)[C@@H]12 (some centres undefined) ?
N

More entries:
What did this assay record as the result for CCC[CH2][Sn]([CH2]CCC)([O]C(=O)Cc1ccc(F)cc1)[O]C(=O)Cc1ccc(F)cc1 ?
N

What did this assay record as the result for O=C(OC(CNc1c(C(=O)c2ccccc2)c(=O)n(Cc2ccccc2)c(=O)n1Cc1ccccc1)CN1CCOCC1)c1ccccc1 (centres undefined) ?
N

What did this assay record as the result for Nc1nc(-c2cccc3ccccc23)cc2ccccc12 ?
Y

What did this assay record as the result for O=c1c2cc(I)ccc2nc(-c2cccs2)n1-c1ccc(S(=O)(=O)Nc2nccs2)cc1 ?
N

* * *

Tested on: NCI-H226 lung
Assay: NCI tumour cell line growth inhibition, 48 h
MEASURED QUANTITY: TGI

Guide cases for TGI, answers given:
# lookup: TGI of O=C(Nc1ccn(C2CC(O)C(CO)O2)c(=O)n1)c1ccccc1 (stereo not drawn)
> 100 µM

# lookup: TGI of Cc1ncc([N+](=O)[O-])n1CC(O)Cn1ccnc1[N+](=O)[O-] (stereo not drawn)
> 100 µM

# lookup: TGI of COc1nc(NC2OC(COC(C)=O)C(OC(C)=O)C(OC(C)=O)C2OC(C)=O)c(N=CC=Nc2c(NC3OC(COC(C)=O)C(OC(C)=O)C(OC(C)=O)C3OC(C)=O)nc(OC)n(C)c2=O)c(=O)n1C (stereo not drawn)
> 100 µM

# lookup: TGI of COc1c(OCCCN2CCOCC2)ccc2c3n(c(=NC(=O)c4cnc(N)nc4)nc12)CCN3
> 100 µM

# lookup: TGI of O=C1C=CC(=O)c2c(O)c(CO)c(CO)c(O)c21
5.03 µM

# lookup: TGI of Cc1nc(-c2nc(C)c(C(=O)/C=C/c3ccc(N(C)C)cc3)s2)sc1C(=O)/C=C/c1ccc(N(C)C)cc1
> 100 µM

# lookup: TGI of COC(=O)CNC(=O)c1cc(C)cc2c1Oc1c(cc(C)cc1C(=O)NCC(=O)OC)S2
> 100 µM

# lookup: TGI of COc1ccc(C2=NN(C(=O)c3ccc(Cl)cc3)C(O)(c3cc(F)c(Cl)cc3Cl)C2)cc1OC (stereo not drawn)
> 100 µM

More entries:
# lookup: TGI of CSC1(C)CC2C(CC1N1CCCCC1)C2(C)C (stereo not drawn)
> 100 µM

# lookup: TGI of CN(O)C(=O)c1ccccc1
> 100 µM

* * *

Measured TGI values are reported for all entries that follow.
System: OVCAR-5 ovarian
Test: NCI tumour cell line growth inhibition, 48 h

# lookup: TGI of O=C1Nc2c(Cl)cc(Cl)cc2/C1=N/N=C/c1ccccc1O
48.7 µM

# lookup: TGI of COc1cc(/C=N/N=C(\N)NO)cc(Cl)c1O
> 100 µM

# lookup: TGI of Cc1ncc(CCl)c2c1OC(C)(C)OC2
40.3 µM

More entries:
# lookup: TGI of CN(CCNC(=O)c1[nH]nc2c1Cc1ccccc1-2)CCNC(=O)c1[nH]nc2c1Cc1ccccc1-2
33.5 µM

# lookup: TGI of C[C@]12CC(c3ccccc3O1)C(C(N)=O)C(=O)N2 (stereo partly specified)
> 100 µM

# lookup: TGI of CCN(CC)CCCNc1nc2ccccc2[n+]([O-])n1
> 100 µM

# lookup: TGI of COc1ccc2[nH]c3c(C)c4ccnc(NCCCN(C)CCCNc5ccc6nnn7c8ccccc8c(=O)c5c67)c4c(C)c3c2c1
2.73 µM

# lookup: TGI of CC(C)(C)c1ccc(O)c(C[N+](C)(C)C)c1
> 100 µM

* * *

Measured TGI values are reported for all entries that follow.
Test system: NCI-H226 lung
Experiment: NCI tumour cell line growth inhibition, 48 h

Guide cases for TGI, answers given:
Record lookup: for NCI-H226 lung, what TGI belongs to CC12OC(=O)[C@@]3(O)CCC4C(C[C@H]5O[C@]56CC=CC(=O)[C@]46C)C45OC[C@H]6C(=O)O[C@@H]1C[C@@]6(C)[C@H](C4=O)C23O5 (stereo partly drawn) ?
6.98 µM

Record lookup: for NCI-H226 lung, what TGI belongs to CNC(=O)CCC(NC(=O)OC(C)(C)C)C(=O)NC(Cc1ccc(NC(=O)CCCCC(C)=O)cc1)C(=O)NCC(=O)NC (stereo not drawn) ?
> 100 µM

Record lookup: for NCI-H226 lung, what TGI belongs to O=C1/C(=C/c2ccc3c(c2)CCC3)Cc2cc3c(cc21)CCC3 ?
> 100 µM

Record lookup: for NCI-H226 lung, what TGI belongs to Cc1cc(OCc2n[nH]c(=S)n2/N=C/c2ccc(F)cc2)ccc1Cl ?
54.7 µM

Record lookup: for NCI-H226 lung, what TGI belongs to CN(C)CCNC(=O)c1ccc(Cl)c2c(Nc3ccc(S(=O)(=O)N=C(N)N)cc3)c3ccccc3nc12 ?
6.67 µM

Record lookup: for NCI-H226 lung, what TGI belongs to O=[N+]([O-])C(=C1NCCN1)/C(Cl)=C(/Cl)N1CCOCC1 ?
> 100 µM

Record lookup: for NCI-H226 lung, what TGI belongs to O=C(OC(CNc1c(C(=O)c2ccccc2)c(=O)n(Cc2ccccc2)c(=O)n1Cc1ccccc1)CN1CCOCC1)c1ccccc1 (stereo not drawn) ?
> 100 µM

Lab note: next compound to report on.
Record lookup: for NCI-H226 lung, what TGI belongs to O=C(c1ccccc1)N1C2C3CC(OCc4ccccc4)(OCc4ccccc4)C(O3)C21 (stereo not drawn) ?
> 100 µM
